Item-by-item account of Cmax
# Method: Pharmacokinetic study of 10 major BYQZF components in plasma (UPLC-MS/MS)
# Conditions: male, C57BL/6J, mouse, plasma, po, 5 g/kg, Cmax, plasma, oral BYQZF 5 g crude drug/kg, group MPTP+BYQZF (PD model mice), n=6
Number only, in ng/mL; omit the unit.

These solved cases illustrate the format of a correct answer.
# Molecule, Reported result
records = [
    ("O=c1cc[nH]c(=O)[nH]1", 0.0395),
    ("O[C@H]1[C@H](O)[C@@H](O)[C@H](O)[C@@H](O)[C@H]1O", 0.0239),
    ("O=c1c(O)c(-c2ccccc2)oc2ccccc12 [3-Hydroxyflavone]", 0.0291),
]

Kindly consider the entry below.
State the recorded Cmax for this entry: C[C@@H]1O[C@@H](O[C@@H]2[C@@H](O)[C@H](OCCc3ccc(O)c(O)c3)O[C@H](COC(=O)/C=C/c3ccc(O)c(O)c3)[C@H]2O)[C@H](O)[C@H](O)[C@H]1O [Isoacteoside]
0.185
